# Tested on: L1210 leukemia ip in BDF1 mice, survival T/C
# Protocol Text: NCI In Vivo Anticancer Drug Screen. Data for tumor model L1210 Leukemia (intraperitoneal) in B6D2F1 (BDF1) mice
# Assay Conditions: endpoint: mean survival time; dose: 50.0 mg/kg/injection; schedule: Q01DX001 (ip); vehicle: carboxymethylcellulose (CMC); higher = longer survival
# Description: The antitumor activity of compounds was measured in mice bearing transplantable tumors. Survival or tumor size were measured and the results are expressed as the measurement made in the treated group (T) divided by the measurement made in the vehicle treated control group (C). The tumor model used in this assay is L1210 Leukemia (intraperitoneal) in B6D2F1 (BDF1) mice
Inconclusive results and toxic doses are left out.
Measured Parameter: T/C

// known answers, use as guide
* Cc1ccc(NC2=C(Cl)C(=O)C(Nc3ccc(C)cc3)=C(Cl)C2=O)cc1 | 97 % of control
* N#CCC(=O)N1CCCCC1 | 93 % of control
* COc1ccc(/C(C#N)=C2C=C/C(=N\O)C(C)=C/2Cl)cc1 | 109 % of control
* O=C(OC1CC2CC1C1C=CCC21)c1ccc([N+](=O)[O-])cc1 (stereo not drawn) | 102 % of control
* ClC1(Cl)C2CC(C3C4C=CC(C4)C32)C1(Cl)Cl (stereo not drawn) | 88 % of control
* COc1cc([N+](=O)[O-])c2nc(C(Br)(Br)Br)ccc2c1[N+](=O)[O-] | 105 % of control
* O=C1CC2(CC3(Cl)C(Cl)=C(Cl)C2(Cl)C3(Cl)Cl)C(=O)O1 (stereo not drawn) | 100 % of control

Q) # value lookup — system L1210 leukemia ip in BDF1 mice, survival T/C, readout T/C, item O=C1C(c2ccccc2)=CC(c2ccccc2)=C1c1ccccc1
A) 91 % of control

###

T/C listing for selected compounds.
# Test system: L1210 leukemia ip in BDF1 mice, survival T/C
# Protocol Text: NCI In Vivo Anticancer Drug Screen. Data for tumor model L1210 Leukemia (intraperitoneal) in B6D2F1 (BDF1) mice
# Assay Conditions: endpoint: mean survival time; dose: 400.0 mg/kg/injection; schedule: Q01DX001 (ip); vehicle: acetone; higher = longer survival
Inconclusive results and toxic doses are left out.

// known answers, use as guide
* CC(=O)C1CCCC1=O (centres undefined) | 95 % of control
* O=[N+]([O-])c1ccc2c(c1)-c1[nH]c3ccccc3c1CS2 | 92 % of control
* CCOC(=O)c1n[nH]c(=S)[nH]c1=S | 107 % of control

Q) # value lookup — system L1210 leukemia ip in BDF1 mice, survival T/C, readout T/C, item c1ccc(C2=C(c3ccccc3)c3cccc4cccc2c34)cc1
A) 94 % of control

###

# Test system: L1210 leukemia ip in BDF1 mice, survival T/C
# Protocol Text: NCI In Vivo Anticancer Drug Screen. Data for tumor model L1210 Leukemia (intraperitoneal) in B6D2F1 (BDF1) mice
# Assay Conditions: endpoint: mean survival time; dose: 50.0 mg/kg/injection; schedule: Q01DX009 (ip); vehicle: saline; higher = longer survival
Inconclusive results and toxic doses are left out.
Measured Parameter: T/C

• O=S(=O)(O)c1cc(O)c2cc(Nc3ccccc3)ccc2c1 = 96 % of control
• CC1CC(C)(C)N=C(CCC2CCCCCC2=O)O1 (stereo not drawn) = 102 % of control
• CN(C)CC/C=C1\c2ccccc2CSc2ccccc21 = 101 % of control
• CC(C(=O)N1c2ccccc2Sc2ccccc21)[N+](C)(C)C (stereo not drawn) = 102 % of control

Q) Returns the measured T/C for the input molecule. Input: CCCNCCN
A) 98 % of control

Q) Ok, now COc1ccc(N2CSC(=S)N(c3ccc(OC)cc3)C2)cc1
A) 93 % of control

Q) Ok, now CN(CCO)C(=O)/C=C/c1ccccc1
A) 100 % of control

Q) Ok, now C1=C/C2OC2CCCC/1 (stereo not drawn)
A) 96 % of control

###

# Test system: L1210 leukemia ip in BDF1 mice, survival T/C
# Protocol Text: NCI In Vivo Anticancer Drug Screen. Data for tumor model L1210 Leukemia (intraperitoneal) in B6D2F1 (BDF1) mice
# Assay Conditions: endpoint: mean survival time; dose: 50.0 mg/kg/injection; schedule: Q01DX009 (ip); vehicle: saline with Tween-80; higher = longer survival
Toxic doses and inconclusive results are not listed.
Measured Parameter: T/C

// known answers, use as guide
- COC(OC)c1cc(=O)[nH]c(NC(=O)C(Cl)Cl)n1: 107 % of control
- C1=C2CC3(CCC2C(OCc2ccccc2)CC1)OCCO3 (centres undefined): 100 % of control
- CCCCC(C)NC1=C(Cl)C(=O)c2ccccc2C1=O (centres undefined): 93 % of control
- CCOC(=O)C1CCCCC1O (centres undefined): 103 % of control
- Cc1ccc(NC(=O)COc2ccc(Cl)cc2Cl)cc1Cl: 89 % of control
- Cc1cc(C)c(CN)cc1CN: 98 % of control
- CC(=O)OCC1OC(N=C=S)C(OC(C)=O)C(OC(C)=O)C1OC(C)=O (centres undefined): 93 % of control
- CC(C)=CCc1ccc(Cl)cc1: 94 % of control
- CCCCN(CCCC)C(=O)C1C=C2c3cccc4[nH]cc(c34)CC2N(C#N)C1 (centres undefined): 91 % of control
- S=C(S)NNc1ccccc1: 86 % of control

Q) # value lookup — system L1210 leukemia ip in BDF1 mice, survival T/C, readout T/C, item COc1ccc(CCNC(=O)Cc2ccccc2)cc1OC
A) 90 % of control

Q) Ok, now C/C=C/C(=O)OCC (tested in a mixture with another compound)
A) 97 % of control

Q) Ok, now COCC=C(C)C
A) 106 % of control

Q) Ok, now CC1(c2ccc3ccccc3c2)OC(=O)c2ccccc21 (centres undefined)
A) 91 % of control

###

# Test system: L1210 leukemia ip in BDF1 mice, survival T/C
# Protocol Text: NCI In Vivo Anticancer Drug Screen. Data for tumor model L1210 Leukemia (intraperitoneal) in B6D2F1 (BDF1) mice
# Assay Conditions: endpoint: mean survival time; dose: 12.5 mg/kg/injection; schedule: Q01DX009 (ip); vehicle: saline; higher = longer survival
Inconclusive results and toxic doses are left out.
Measured Parameter: T/C

// known answers, use as guide
• CCCCCC[P+](c1ccccc1)(c1ccccc1)c1ccccc1 = 107 % of control
• CN1CCC(CN2c3ccccc3Sc3ccccc32)C1 (configuration not stated) = 101 % of control
• CCCCCCCCCCCCCCCCCC[N+](C)(C)Cc1cc(=O)c(O)co1 = 106 % of control

Q) # value lookup — system L1210 leukemia ip in BDF1 mice, survival T/C, readout T/C, item CC1(C)N=C(N)N=C(N)N1c1cccc(CC(=O)Nc2ccccc2)c1
A) 102 % of control

Q) Ok, now CN(C)CCCN=C1Nc2ccccc2C(=NCCCN(C)C)Nc2ccccc21
A) 97 % of control

Q) Ok, now OC(CF)CCl (configuration not stated)
A) 96 % of control

Q) Ok, now C=C1CC[N+]2(C)CCCC12 (configuration not stated)
A) 100 % of control

###

# System: L1210 leukemia ip in BDF1 mice, survival T/C
# Protocol Text: NCI In Vivo Anticancer Drug Screen. Data for tumor model L1210 Leukemia (intraperitoneal) in B6D2F1 (BDF1) mice
# Assay Conditions: endpoint: mean survival time; dose: 100.0 mg/kg/injection; schedule: Q04DX003 (ip); vehicle: saline with Tween-80; higher = longer survival
Toxic doses and inconclusive results are not listed.
Measured Parameter: T/C

Q) Returns the measured T/C for the input molecule. Input: COc1ccc(C)cc1NC(=S)NC(=O)/C=C/c1ccccc1
A) 91 % of control

###

# Tested on: L1210 leukemia ip in BDF1 mice, survival T/C
# Protocol Text: NCI In Vivo Anticancer Drug Screen. Data for tumor model L1210 Leukemia (intraperitoneal) in B6D2F1 (BDF1) mice
# Assay Conditions: endpoint: mean survival time; dose: 100.0 mg/kg/injection; schedule: Q04DX002 (ip); vehicle: Klucel (hydroxypropylcellulose) (HPC); higher = longer survival
Toxic doses and inconclusive results are not listed.
T/C listing for selected compounds.

// known answers, use as guide
* O=C(Nc1ccccc1Cl)Oc1ccc(-c2ccccc2)cc1 | 95 % of control
* CC(C)(CCl)c1ccc(C(C)(C)CCl)cc1 | 93 % of control
* CSC(NC(=O)c1ccc([N+](=O)[O-])cc1)C(N)=O (stereo not drawn) | 106 % of control

Q) Returns the measured T/C for the input compound. Input: O=C1Cc2ccccc2N1C(=O)c1ccccc1
A) 101 % of control

Q) Ok, now CC(=O)NC1CCC(C(C)(C)C)CC1 (stereo not drawn)
A) 93 % of control

Q) Ok, now O=C(O)Cn1cc(Cl)cc(Cl)c1=O
A) 107 % of control

Q) Ok, now CN(C)CCCNc1nc(-c2cc(C(F)(F)F)cc(C(F)(F)F)c2)nc(C(Cl)(Cl)Cl)n1
A) 100 % of control

Taken from PubChem BioAssay AID248.
